- Test system: PIM3
- Applied Conditions: concentration: 1 μM, replicates: in singlicate; n = 1;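 also: KINOMEscan kinase panel screen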
Measured Endpoint: %Inh
Reply with a number, then the unit it belongs to.

Example entries and their recorded answers appear below.
> print(dat)
                                   compound  target.system  observed.value
1  FC(F)(F)c1ccc(/C=C/c2cncnc2Nc2ccc3[nH]c(Cc4ccccc4)nc3c2)cc1           PIM3              0%
2  COc1ccc(CNC(=O)NC2CCN(c3ccnc(Nc4ccc(F)cc4)n3)CC2)cc1           PIM3              0%
3  COc1cc2c(cc1OCCN1CCNCC1)ncc1c3ccc(C#N)cc3[nH]c21           PIM3             52%
4  Cc1ccc(F)c(C(=O)Nc2cccc(-c3nn4ccccc4c3-c3ccnc(Nc4cccc(F)c4)n3)c2)c1F           PIM3              7%

# value of %Inh, PIM3, item Cc1ccc(S(=O)(=O)Nc2ccc(Nc3nccc(Nc4cccc5[nH]ncc45)n3)cc2)cc1 = 0%

# value of %Inh, PIM3, item Cn1cc(-c2ccc3c(c2)CCN3C(=O)Cc2cccc(Cl)c2)c2c(N)ncnc21 = 8%

Form field, %Inh with PIM3, item CCn1c(-c2nonc2N)nc2c(C#CC(C)(C)O)ncc(OCCCCN)c21.O=C(O)C(F)(F)F.O=C(O)C(F)(F)F : 78%

The reported %Inh value, PIM3, for Cl.Cl.NCC(C(=O)Nc1cc(Br)c(-c2ccnc3[nH]ccc23)s1)c1ccccc1 (centres unmarked) reads 0%

Value sought: %Inh, system PIM3, item COCCOCCOc1cc2ncc3c4ccc(C#N)cc4[nH]c3c2cc1OC . Result: 49%

Lab note: compound COc1cc(Nc2nccc(-c3c(-c4cccc(NC(=O)c5c(F)cccc5F)c4)nn4ncccc34)n2)cc(OC)c1OC tested on PIM3; recorded %Inh was 0%

For Clc1ccc(-c2nn3ncccc3c2-c2ccnc(Nc3ccc4c(c3)OCCO4)n2)cc1 on PIM3, measured %Inh was 0%

Per the reported PIM3 data, Nc1n[nH]c2cnc(-c3ccccc3)cc12 has %Inh of 13%

###

- Test system: MEK5
- Construct: gene MAP2K5
- Applied Conditions: concentration: 1 μM, replicates: in singlicate; n = 1
Cut-off 20% on %Inh: below means Yes, at or above means No.

> print(dat)
                                   compound  cat
1              Nc1n[nH]c2cnc(-c3ccccc3)cc12   No
2                  c1ccc(-c2cnc3nccnn23)cc1  Yes
3  CN(c1ccc(NC(=O)Nc2cc(C(F)(F)F)ccc2F)cc1)c1ccnc(Nc2ccc(S(N)(=O)=O)cc2)n1   No
4  COc1cccc(C2=C(Nc3ccc(Cl)c(C(=O)O)c3)C(=O)NC2=O)c1  Yes

Please examine the following record next.
Is %Inh of Cc1ccc(S(=O)(=O)Nc2ccc(Nc3nccc(Nc4cccc5[nH]ncc45)n3)cc2)cc1 strictly below 20%?
No

###

- Test system: MEK3
- Construct: gene MAP2K3
- Applied Conditions: concentration: 1 μM, replicates: in singlicate; n = 1
Measured Endpoint: %Inh

Known results for compounds:
> print(dat)
                                   compound  observed.value
1  Cn1cc(-c2ccc3c(c2)CCN3C(=O)Cc2cccc(Cl)c2)c2c(N)ncnc21              0%
2  COc1ccc(CNC(=O)NC2CCN(c3ccnc(Nc4ccc(F)cc4)n3)CC2)cc1              0%
3                  c1ccc(-c2cnc3nccnn23)cc1              0%
4  COc1ccc(Nc2nccc(N3CCC(NC(=O)Nc4cccc(OC)c4)C3)n2)cc1 (stereo not drawn)              0%
5  Cl.c1ccc(-c2ccc3c(Nc4ccc5[nH]ccc5c4)ccnc3c2)nc1              0%
6  COc1cc(Nc2nccc(-c3c(-c4cccc(NC(=O)c5c(F)cccc5F)c4)nn4ccccc34)n2)cc(OC)c1OC              0%
7  COc1cccc(C(=O)Nc2cccc(Oc3ccc4nc(NC(=O)C5CC5)cn4n3)c2)c1             15%
8  CN1CCN(CCCNc2nccc(-c3c(-c4ccc(F)cc4)nn4cc(C(F)(F)F)ccc34)n2)CC1              0%

// %Inh value for COc1cccc(NC(=O)NC2CCN(c3ccnc(Nc4cc(OC)c(OC)c(OC)c4)n3)C2)c1 (stereo not drawn) : 8%

For O=C(Nc1cccc(-c2nn3ncccc3c2-c2ccnc(Nc3ccccc3)n2)c1)c1c(F)cccc1F the compound record lists %Inh as 3%

Origin of values: paper PMC5540273
